B1: PDZK1 (parent)
chain: QKEQGLSDNILSPVMNGGVQTWTQ

variants of: B1; experiment: protein stability index of a GFP-peptide fusion (GPS, HEK-293T) (PSI 1-6); higher = more stable; details: c terminus: a fixed tail appended;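 note: lentivirally expressed fusions sorted by FACS into six bins by GFP to DsRed ratio, PSI derived from sequencing read proportions per bin multiplied by bin number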
Observed Property: protein stability index
Give bare numbers.

S7P	3.36

Could I get protein stability index for every one of these entries?
1. Q24K
2. D8R
3. S12G

OUTPUT:
1. 3.55
2. 2.59
3. 3.21

Data origin, for the record: the supplement of paper PMC10567573
